Below, each of the compounds is paired with its reported cytotoxicity at 10 µM value.
assay: Toxicity liver stage against HepG2, at 10uM; type: cell-based; set-up: test concentration 10 uM, cell line HepG2-A16-CD81EGFP; details: human, HepG2-A16-CD81EGFP cells; read-out: INHIBITION
Write the value in % as a bare number.

Take a look at these entries with their results.
{"compound": "O=C(CC1CCCC1)N1CCOC(c2nc(-c3ncccn3)no2)C1 (stereo not given)", "reported.value": -13.2}
{"compound": "COc1cccn(Cc2nnc(-c3cccc(F)c3)o2)c1=O", "reported.value": 2}
{"compound": "CCCc1nn(C2CCN(C(C)C)C2=O)c(=O)o1 (stereo not given)", "reported.value": -3.59}
{"compound": "CC(=O)c1ccc(S(=O)(=O)N2CCC(c3n[nH]c(C)n3)CC2)cc1", "reported.value": -5.24}

Tell me the measured cytotoxicity at 10 µM of CCc1cc(N(C)Cc2cc[nH]n2)n2nc(C)c(C)c2n1 , please.
24

====

test: Toxicity liver stage against HepG2, at 10uM; type: cell-based; parameters: test concentration 10 uM, cell line HepG2-A16-CD81EGFP; conditions: human, HepG2-A16-CD81EGFP cells; read-out: INHIBITION
Below, each of the compounds is paired with its reported cytotoxicity at 10 µM value.
Write the value in % as a bare number.

{"compound": "CCCN(Cc1ccccc1O)C(=O)Nc1cnn(CCOC)c1", "reported.value": 23.8}
{"compound": "COCC1CC2(CCN(Cc3ccoc3)CC2)CN1Cc1ccccn1 (stereo not given)", "reported.value": -98.8}
{"compound": "O=C1NCC2(CCCN(Cc3ccc(Cl)s3)C2)Oc2ccccc21 (stereo not given)", "reported.value": 8.69}
{"compound": "CN(C)CC(=O)N1CCc2ncnc(-c3ccoc3)c2CC1", "reported.value": -7.36}

Now look at this one.
Tell me the measured cytotoxicity at 10 µM of CC(C1CCN(C(=O)c2coc(CN3CCOCC3)c2)CC1)N(C)C (stereo not given) , please.
-4.07

====

Below, each of the molecules is paired with its reported cytotoxicity at 10 µM value.
assay: Toxicity liver stage against HepG2, at 10uM; type: cell-based; design: test concentration 10 uM, cell line HepG2-A16-CD81EGFP; conditions: human, HepG2-A16-CD81EGFP cells; read-out: INHIBITION
Write the value in % as a bare number.

{"molecule": "NCc1ccc(N2CCN(c3ncccn3)CC2)c(F)c1", "unit.descriptor": "%", "cytotoxicity at 10 µM": -50.8}
{"molecule": "Cc1nccn1-c1ccc(NS(=O)(=O)c2cnn(C(C)C)c2)cn1", "unit.descriptor": "%", "cytotoxicity at 10 µM": -5.05}
{"molecule": "CNC(=O)CN1CCO[C@H]2CN(C(=O)c3ccncc3F)C[C@H]21", "unit.descriptor": "%", "cytotoxicity at 10 µM": -155}
{"molecule": "CC(C)N1CCC(C(=O)N2CCN(c3cccc(C(=O)O)c3)CC2)CC1", "unit.descriptor": "%", "cytotoxicity at 10 µM": 6.4}
{"molecule": "Cc1ccc(CN(C)C(=O)CN2CCCC(Cn3cncn3)C2)o1 (stereo not given)", "unit.descriptor": "%", "cytotoxicity at 10 µM": -24.4}
{"molecule": "C[C@@H]1CN(Cc2cc3ccccc3n2C)CC[C@]1(C)O", "unit.descriptor": "%", "cytotoxicity at 10 µM": 8.35}

Tell me the measured cytotoxicity at 10 µM of CCS(=O)(=O)N1CCCC(c2nc3ccccc3n2C(C)C)C1 (stereo not given) , please.
-6.11

Tell me the measured cytotoxicity at 10 µM of CCCC1c2cccn2CCN1C(=O)Cn1cnc2sc(C)cc2c1=O (stereo not given) , please.
-0.35

Tell me the measured cytotoxicity at 10 µM of CC(C)CN1C(=O)CO[C@@H]2CN(C(=O)CC(F)(F)F)C[C@H]21 , please.
-1.74

Tell me the measured cytotoxicity at 10 µM of COc1nc(C)c(C(=O)N2CCc3[nH]nc(C4CCCC4)c3C2)s1 , please.
7.51

Tell me the measured cytotoxicity at 10 µM of COCCN1CCN(C(=O)N2CCCC2)Cc2ccc(C)nc21 , please.
-65.5

Tell me the measured cytotoxicity at 10 µM of CO[C@H]1CC[C@H]2[C@H]1OCCN2Cc1ccc(F)cc1 , please.
7.34

====

experiment: Toxicity liver stage against HepG2, at 10uM; format: cell-based; set-up: test concentration 10 uM, cell line HepG2-A16-CD81EGFP; settings: human, HepG2-A16-CD81EGFP cells; read-out: INHIBITION
measured.parameter: cytotoxicity at 10 µM (%)
Write the value in % as a bare number.

Take a look at these entries with their results.
{"compound": "CC(C)c1nc2c(n1C)CCN(CC(=O)Nc1ccnn1C(C)C)C2", "cytotoxicity at 10 µM, %": -1.3}
{"compound": "Cc1cccc(Cn2c(=O)[nH]c3csnc3c2=O)c1", "cytotoxicity at 10 µM, %": 3.46}
{"compound": "Clc1cccc(C(NCc2ncc[nH]2)c2ccccn2)c1 (configuration not stated)", "cytotoxicity at 10 µM, %": 0.863}
{"compound": "Cn1cc(CN2CC[C@H]3O[C@@H](COCc4cccnc4)CC[C@H]32)cn1", "cytotoxicity at 10 µM, %": -73.8}

Tell me the measured cytotoxicity at 10 µM of COc1ccc(CNC(=O)NCC2CCOC2)c(C(F)(F)F)c1 (configuration not stated) , please.
-8.28

Tell me the measured cytotoxicity at 10 µM of Cc1nn(C)c(N2CCOCC2)c1CNCc1ccnc(N(C)C)c1 , please.
1.97

Tell me the measured cytotoxicity at 10 µM of O=c1[nH]c(CCN2CCCC(Cn3cncn3)C2)nc2ccccc12 (configuration not stated) , please.
-8.62

Tell me the measured cytotoxicity at 10 µM of Cc1nnsc1CN1CC[C@@](O)(C2CCC2)[C@H](C)C1 , please.
11.8

Tell me the measured cytotoxicity at 10 µM of CCOCC(=O)NC1(c2cccc(Br)c2)CC1 , please.
-11.3

Tell me the measured cytotoxicity at 10 µM of Cc1nc(CN2CCC3(CCN(Cc4cnn(C)c4)C3)C2=O)cs1 (configuration not stated) , please.
6.81

Tell me the measured cytotoxicity at 10 µM of O=C1CC(c2ccc(C(=O)O)cc2)c2ncn(-c3ccccc3F)c2N1 (configuration not stated) , please.
-3.51

Tell me the measured cytotoxicity at 10 µM of CC/N=c1\nc(NCC)nc2n1C(O)(Nc1ccc(C)cc1C)CS2 (configuration not stated) , please.
-1.95

Tell me the measured cytotoxicity at 10 µM of O=C(Nc1cccnc1N1CCSCC1)c1ccc2c(c1)OCO2 , please.
-6.14

====

test: Toxicity liver stage against HepG2, at 10uM; assay type: cell-based; parameters: test concentration 10 uM, cell line HepG2-A16-CD81EGFP; details: human, HepG2-A16-CD81EGFP cells; read-out: INHIBITION
measured.parameter: cytotoxicity at 10 µM (%)
Write the value in % as a bare number.

Take a look at these entries with their results.
{"compound": "CN(Cc1cccc(OC(F)F)c1)Cc1nc2c(cnn2C)c(=O)[nH]1", "measured.parameter": "cytotoxicity at 10 µM", "reported.value": -0.438}
{"compound": "O=S(=O)(NCc1cccnc1OC1CCCC1)N1CCOCC1", "measured.parameter": "cytotoxicity at 10 µM", "reported.value": 1.46}

Tell me the measured cytotoxicity at 10 µM of COc1c(C2CCCN2C(=O)c2ccc(Cl)o2)c(C)nn1C (centres undefined) , please.
-10.4

Tell me the measured cytotoxicity at 10 µM of CS(=O)(=O)CCCSCc1cc(F)cc(Br)c1 , please.
9.05

====

experiment: Toxicity liver stage against HepG2, at 10uM; format: cell-based; design: test concentration 10 uM, cell line HepG2-A16-CD81EGFP; conditions: human, HepG2-A16-CD81EGFP cells; read-out: INHIBITION
measured.parameter: cytotoxicity at 10 µM (%)
Write the value in % as a bare number.

Take a look at these entries with their results.
{"structure.smiles": "CN(CC(=O)N1CCN(c2ncccn2)CC1)c1ccc(Cl)cn1", "measured.parameter": "cytotoxicity at 10 µM", "reported.value": -9.65}
{"structure.smiles": "CN1CCC2(C=C(C(=O)N3CCCC3)c3ccccc32)CC1", "measured.parameter": "cytotoxicity at 10 µM", "reported.value": 1.97}
{"structure.smiles": "Cc1cc(C)cc(OCCN2CCn3c(C)nnc3C2)c1", "measured.parameter": "cytotoxicity at 10 µM", "reported.value": -9.08}
{"structure.smiles": "Cc1ccc(C(=O)N(C)Cc2c(C)noc2C)c(=O)[nH]1", "measured.parameter": "cytotoxicity at 10 µM", "reported.value": -8.2}
{"structure.smiles": "O=C1[C@H]2CN(Cc3nccs3)C[C@H]2CN1c1cncnc1", "measured.parameter": "cytotoxicity at 10 µM", "reported.value": -81.9}
{"structure.smiles": "COCc1ccc(CNCc2c(C)nn(C)c2N(C)C)cc1", "measured.parameter": "cytotoxicity at 10 µM", "reported.value": -16}

Now look at this one.
Tell me the measured cytotoxicity at 10 µM of Cn1cnc(S(=O)(=O)N2CCCc3cccc(F)c32)c1Cl , please.
-4.63

src = ChEMBL document CHEMBL4513216
